Cited source: patent US20230093861A1

Test system: P-Akt (S473)
ASSAY_NOTES: Cell based AlphaLISA assay, inhibition of P-Akt (S473) (mTORC2 substrate phosphorylation) in MDA-MB-468 cells
RUN_CONDITIONS: Homo sapiens, MDA-MB-468, 4 h, AlphaLISA, two to four hours at 37° C., read-out: pIC50 for Inhibition of mTORC1 and mTORC2 Substrate Phosphorylation, p-AKT 1/2/3 -(S473) (converted)
Description: Cell Based AlphaLISA Assays for Determining IC50 for Inhibition of P-Akt (S473), P-4E-BP1 (T37/46), and P-P70S6K (T389) in MDA-MB-468 Cells mTOR Kinase Cellular Assay To measure functional activity of mTORC1 and mTORC2 in cells the phosphorylation of 4EBP1 (Thr37/46) and P70S6K (Thr389), and AKT1/2/3 (Ser473) was monitored using AlphaLisa SureFire Ultra Kits (Perkin Elmer). […] Incubations were terminated by removal of the assay buffer and addition of lysis buffer provided with the assay kit. […]
MEASURE_NAME: IC50

# example entries with known answers
MOLECULE	MEASURED_TARGET	RESULT
CO[C@H]1C[C@@H]2CC[C@@H](C)[C@@](O)(O2)C(=O)C(=O)N2CCCC[C@H]2C(=O)O[C@H]([C@H](C)C[C@@H]2CC[C@H](n3cc(COC(=O)NCCOCCOCCOCCC(=O)NCCOCCOCCC(=O)NCCCCn4nc(-c5ccc6oc(N)nc6c5)c5c(N)ncnc54)nn3)[C@H](OC)C2)C/C(=N/OCc2ccccc2)[C@H](C)/C=C(\C)[C@@H](O)[C@@H](OC)C(=O)[C@H](C)C[C@H](C)/C=C/C=C/C=C/1C	P-Akt (S473)	> 1000 nM
CO[C@H]1C[C@@H]2CC[C@@H](C)[C@@](O)(O2)C(=O)C(=O)N2CCCC[C@H]2C(=O)O[C@H]([C@H](C)C[C@@H]2CC[C@@H](OCc3cccc(-c4cnc(N5CCN(Cc6cn(CCOCCOCCOCCOCCC(=O)NCCCCn7nc(-c8ccc9oc(N)nc9c8)c8c(N)ncnc87)nn6)C(CO)C5)nc4)c3)[C@H](OC)C2)CC(=O)[C@H](C)/C=C(\C)[C@@H](O)[C@@H](OC)C(=O)[C@H](C)C[C@H](C)/C=C/C=C/C=C/1C (some centres unmarked)	P-Akt (S473)	3.16 to 31.6 nM
CCO[C@@H]1C[C@@H]([C@H](C)C[C@@H]2CC[C@H](n3cc(COC(=O)NCCOCCOCCOCCC(=O)NCCOCCOCCC(=O)NCCCCn4nc(-c5cc6cc(O)ccc6[nH]5)c5c(N)ncnc54)nn3)[C@H](OC)C2)OC(=O)[C@@H]2CCCCN2C(=O)C(=O)[C@]2(O)O[C@@H](CC[C@H]2C)C[C@H](OC)/C(C)=C/C=C/C=C/[C@@H](C)C[C@@H](C)C(=O)[C@H](OC)[C@H](O)/C(C)=C/[C@H]1C	P-Akt (S473)	> 1000 nM

Please report the recorded IC50 for CO[C@H]1C[C@@H]2CC[C@@H](C)[C@@](O)(O2)C(=O)C(=O)N2CCCC[C@H]2C(=O)O[C@H]([C@H](C)C[C@@H]2CC[C@H](n3cc(COC(=O)NCCOCCOCCOCCC(=O)NCCOCCOCCC(=O)NCCCCn4nc(-c5cc6cc(O)ccc6[nH]5)c5c(N)ncnc54)nn3)[C@H](OC)C2)C/C(=N/OC(C)(C)C)[C@H](C)/C=C(\C)[C@@H](O)[C@@H](OC)C(=O)[C@H](C)C[C@H](C)/C=C/C=C/C=C/1C . > 1000 nM

Try this molecule too: CO[C@H]1C[C@@H]2CC[C@@H](C)[C@@](O)(O2)C(=O)C(=O)N2CCCC[C@H]2C(=O)O[C@H]([C@H](C)C[C@@H]2CC[C@H](n3cc(COC(=O)NCCOCCOCCOCCC(=O)NCCOCCOCCOCCC(=O)NCCCCn4nc(-c5cc6cc(O)ccc6[nH]5)c5c(N)ncnc54)nn3)[C@H](OC)C2)CC(=O)[C@H](C)/C=C(\C)[C@@H](O)[C@@H](OC)C(=O)[C@H](C)C[C@H](C)/C=C/C=C/C=C/1C 31.6 to 1000 nM
